Where do these numbers come from? They come from paper PMC7179167.

melting point reference

> print(dat)
                                   compound  property.measured         result
1  CCOc1cc2occc2c(OC)c1C1=NNC2(C1)C(=O)Nc1ccccc12 (centres unmarked) [Compound 11c]      melting point  137 to 139 °C
2  O=C1Nc2ccccc2C12CC(c1cn(Cc3ccccc3)c3ccccc13)=NN2c1ccccc1 (centres unmarked) [Compound 14c]      melting point    96 to 98 °C
3  O=C(c1ccccc1Cl)n1cc(C2=NN(c3ccccc3)C3(C2)C(=O)Nc2ccccc23)c2ccccc21 (centres unmarked) [Compound 14e]      melting point    78 to 80 °C
4  O=C1Nc2ccccc2C12CC(c1cn(S(=O)(=O)c3ccc(Cl)cc3)c3ccccc13)=NN2 (centres unmarked) [Compound 13h]      melting point  197 to 199 °C
5  O=C1Nc2ccccc2C12CC(c1cn(S(=O)(=O)c3ccc(Br)cc3)c3ccccc13)=NN2c1ccccc1 (centres unmarked) [Compound 14g]      melting point  132 to 134 °C
6  CCn1cc(C2=NNC3(C2)C(=O)Nc2ccccc23)c2ccccc21 (centres unmarked) [Compound 13b]      melting point  143 to 145 °C

Data request, read-out melting point, for O=C1Nc2ccccc2C12CC(c1cn(S(=O)(=O)c3ccc(Br)cc3)c3ccccc13)=NN2 (centres unmarked) [Compound 13g]
190 to 192 °C

Reported melting point for CCn1cc(C2=NN(c3ccccc3)C3(C2)C(=O)Nc2ccccc23)c2ccccc21 (centres unmarked) [Compound 14b] : what is it?
108 to 110 °C

---

Collected inhibition at 100 µg/mL values appear next to each entry.
- System: normal skin fibroblast cells (BJ-1)
- Assay Notes: MTT cytotoxicity assay, normal skin fibroblast BJ-1
- Format: cell-based
- Assay Conditions: Homo sapiens, 48 h, read-out: Growth Inhibition (%) BJ-1
Form entry: value (%) — number only.

Param item = COc1c(C2=NNC3(C2)C(=O)Nc2ccccc23)c(OC)c2ccoc2c1OC (stereo not drawn) [Compound 12b] ; retrieve measured inhibition at 100 µg/mL.
5

Which inhibition at 100 µg/mL value belongs to COc1cc2occc2c(OC)c1C1=NNC2(C1)C(=O)Nc1ccccc12 (stereo not drawn) [Compound 11b] ?
10.1

State the recorded inhibition at 100 µg/mL for this entry: O=C1Nc2ccccc2C12CC(c1cn(S(=O)(=O)c3ccc(Cl)cc3)c3ccccc13)=NN2c1ccccc1 (stereo not drawn) [Compound 14h]
86.5

Quick one: inhibition at 100 µg/mL for CCOc1c(C2=NNC3(C2)C(=O)Nc2ccccc23)c(OC)c2ccoc2c1OC (stereo not drawn) [Compound 12c] ?
62.3

inhibition at 100 µg/mL lookup needed for COc1c(C2=NNC3(C2)C(=O)Nc2ccccc23)c(O)cc2occc12 (stereo not drawn) [Compound 11a] , thanks.
6.2

Fill in the blank: the reported inhibition at 100 µg/mL of CCn1cc(C2=NNC3(C2)C(=O)Nc2ccccc23)c2ccccc21 (stereo not drawn) [Compound 13b] is ____.
10.4

---

Each entry below carries its recorded inhibition.
- Assay Notes: DPPH free radical scavenging assay
- Format: biochemical
- Assay Conditions: 45 min; concentration of 20µg/l; mean ± SD of three experiments; read-out: Scavenging Activity (%) on DPPH radicals at 45 min
Answer with a number only, understood to be in %.

A selection of reference data follows.
> print(dat)
                                   compound  units.text  readout.number
1  O=C(c1ccccc1)n1cc(C2=NN(c3ccccc3)C3(C2)C(=O)Nc2ccccc23)c2ccccc21 (centres unmarked) [Compound 14d]           %              45
2  O=C(c1ccccc1)n1cc(C2=NNC3(C2)C(=O)Nc2ccccc23)c2ccccc21 (centres unmarked) [Compound 13d]           %            25.9
3  O=C1Nc2ccccc2C12CC(c1cn(S(=O)(=O)c3ccc(Br)cc3)c3ccccc13)=NN2 (centres unmarked) [Compound 13g]           %            49.2
4  O=C1Nc2ccccc2C12CC(c1cn(Cc3ccccc3)c3ccccc13)=NN2 (centres unmarked) [Compound 13c]           %              24
5  COc1c(C2=NNC3(C2)C(=O)Nc2ccccc23)c(OC)c2ccoc2c1OC (centres unmarked) [Compound 12b]           %            30.6

Can you look up the measured inhibition of COc1c(-c2cnc3ccccc3c2C(=O)O)c(O)cc2occc12 [Compound 15a] for me?
20.4

Look up inhibition for this compound: O=C1Nc2ccccc2C12CC(c1cn(S(=O)(=O)c3ccc(Cl)cc3)c3ccccc13)=NN2c1ccccc1 (centres unmarked) [Compound 14h]
72

// inhibition lookup, key: COc1c(C2=NNC3(C2)C(=O)Nc2ccccc23)c(O)cc2occc12 (centres unmarked) [Compound 11a]
17.7

---

- Assay Notes: DPPH free radical scavenging assay
- Type: biochemical
- Assay Conditions: 15 min; concentration of 20µg/l; mean ± SD of three experiments; read-out: Scavenging Activity (%) on DPPH radicals at 15 min
- Experimental: Antioxidant activity of the newly synthesized 13a–i, 14a–i, 11a–c and 12a–c were assessed in terms of hydrogen-donating or radical-scavenging ability via the stable free radical 1,1-diphenyl-2-picrylhydrazyl (DPPH) using ascorbic acid as a reference at a concentration of […]. The free radical scavenging activity (RSA) was assessed spectrophotometically at 517 nm via decoloration of the solution of the DPPH (1,1-diphenyl-2-picrylhydrazyl) radical according to Brand-Williams et al. 1995 [32]. […]
Property Measured: inhibition (%)
# number only, unit % dropped from output

> print(dat)
                                   compound  readout.number
1  O=C1Nc2ccccc2C12CC(c1cn(S(=O)(=O)c3ccc(Br)cc3)c3ccccc13)=NN2 (stereo not shown) [Compound 13g]            25.9
2  COc1cc2occc2c(OC)c1C1=NNC2(C1)C(=O)Nc1ccccc12 (stereo not shown) [Compound 11b]             9.6
3  O=C(c1ccccc1)n1cc(C2=NNC3(C2)C(=O)Nc2ccccc23)c2ccccc21 (stereo not shown) [Compound 13d]            19.3

Continue with the next compound.
inhibition lookup needed for COc1c(C2=NNC3(C2)C(=O)Nc2ccccc23)c(OC)c2ccoc2c1OC (stereo not shown) [Compound 12b] , thanks.
17.3

---

- System: caspase-3
- Assay Notes: Caspase-3 colorimetric assay in MCF-7 cells
- Type: cell-based, human
- Assay Conditions: MCF-7 cells treated at IC50 concentration; control 10.2 ± 2.84; mean ± SD
Below, each entry is listed alongside its reported Caspase-3 Activity %.
Respond with the bare value in %.

Below are worked cases with known answers.
> print(dat)
                                   compound  units.text  readout.number
1  O=C1Nc2ccccc2C12CC(c1cn(Cc3ccccc3)c3ccccc13)=NN2 (centres unmarked) [Compound 13c]           %           39.07
2  COc1c(C2=NNC3(C2)C(=O)Nc2ccccc23)c(OC)c2ccoc2c1OC (centres unmarked) [Compound 12b]           %           47.25
3  COc1cc2occc2c(OC)c1C1=NNC2(C1)C(=O)Nc1ccccc12 (centres unmarked) [Compound 11b]           %           16.19

Reported Caspase-3 Activity %, compound COc1c(C2=NNC3(C2)C(=O)Nc2ccccc23)c(O)cc2occc12 (centres unmarked) [Compound 11a] : ____
16.67

What value of Caspase-3 Activity % has been reported for the following compound? COc1c(C2=NNC3(C2)C(=O)Nc2ccccc23)c(O)c(OC)c2occc12 (centres unmarked) [Compound 12a]
14.18

---

Property Measured: melting point

Use the examples below as a reference point.
> print(dat)
                                   compound  property.measured         result
1  O=C1Nc2ccccc2C12CC(c1c[nH]c3ccccc13)=NN2c1ccccc1 (centres unmarked) [Compound 14a]      melting point  124 to 126 °C
2  O=C(c1ccccc1Cl)n1cc(C2=NNC3(C2)C(=O)Nc2ccccc23)c2ccccc21 (centres unmarked) [Compound 13e]      melting point  219 to 221 °C

Data request, read-out melting point, for O=C(c1ccc(Cl)cc1)n1cc(C2=NNC3(C2)C(=O)Nc2ccccc23)c2ccccc21 (centres unmarked) [Compound 13f]
202 to 204 °C

Which melting point is reported for this compound? COc1c(-c2cnc3ccccc3c2C(=O)O)c(O)cc2occc12 [Compound 15a]
217 to 219 °C

Look at this compound and give its reported melting point. O=C(c1ccc(Cl)cc1)n1cc(C2=NN(c3ccccc3)C3(C2)C(=O)Nc2ccccc23)c2ccccc21 (centres unmarked) [Compound 14f]
162 to 164 °C

What value of measured melting point is listed for O=C1Nc2ccccc2C12CC(c1cn(S(=O)(=O)c3ccccc3[N+](=O)[O-])c3ccccc13)=NN2 (centres unmarked) [Compound 13i] ?
210 to 212 °C

Which melting point is listed for O=C1Nc2ccccc2C12CC(c1c[nH]c3ccccc13)=NN2 (centres unmarked) [Compound 13a] ?
318 to 320 °C

Data request, read-out melting point, for O=C1Nc2ccccc2C12CC(c1cn(S(=O)(=O)c3ccccc3[N+](=O)[O-])c3ccccc13)=NN2c1ccccc1 (centres unmarked) [Compound 14i]
152 to 154 °C
